Molecular target: TRPM4 channels (Homo sapiens)
Sequence (Q8TD43 whole entry): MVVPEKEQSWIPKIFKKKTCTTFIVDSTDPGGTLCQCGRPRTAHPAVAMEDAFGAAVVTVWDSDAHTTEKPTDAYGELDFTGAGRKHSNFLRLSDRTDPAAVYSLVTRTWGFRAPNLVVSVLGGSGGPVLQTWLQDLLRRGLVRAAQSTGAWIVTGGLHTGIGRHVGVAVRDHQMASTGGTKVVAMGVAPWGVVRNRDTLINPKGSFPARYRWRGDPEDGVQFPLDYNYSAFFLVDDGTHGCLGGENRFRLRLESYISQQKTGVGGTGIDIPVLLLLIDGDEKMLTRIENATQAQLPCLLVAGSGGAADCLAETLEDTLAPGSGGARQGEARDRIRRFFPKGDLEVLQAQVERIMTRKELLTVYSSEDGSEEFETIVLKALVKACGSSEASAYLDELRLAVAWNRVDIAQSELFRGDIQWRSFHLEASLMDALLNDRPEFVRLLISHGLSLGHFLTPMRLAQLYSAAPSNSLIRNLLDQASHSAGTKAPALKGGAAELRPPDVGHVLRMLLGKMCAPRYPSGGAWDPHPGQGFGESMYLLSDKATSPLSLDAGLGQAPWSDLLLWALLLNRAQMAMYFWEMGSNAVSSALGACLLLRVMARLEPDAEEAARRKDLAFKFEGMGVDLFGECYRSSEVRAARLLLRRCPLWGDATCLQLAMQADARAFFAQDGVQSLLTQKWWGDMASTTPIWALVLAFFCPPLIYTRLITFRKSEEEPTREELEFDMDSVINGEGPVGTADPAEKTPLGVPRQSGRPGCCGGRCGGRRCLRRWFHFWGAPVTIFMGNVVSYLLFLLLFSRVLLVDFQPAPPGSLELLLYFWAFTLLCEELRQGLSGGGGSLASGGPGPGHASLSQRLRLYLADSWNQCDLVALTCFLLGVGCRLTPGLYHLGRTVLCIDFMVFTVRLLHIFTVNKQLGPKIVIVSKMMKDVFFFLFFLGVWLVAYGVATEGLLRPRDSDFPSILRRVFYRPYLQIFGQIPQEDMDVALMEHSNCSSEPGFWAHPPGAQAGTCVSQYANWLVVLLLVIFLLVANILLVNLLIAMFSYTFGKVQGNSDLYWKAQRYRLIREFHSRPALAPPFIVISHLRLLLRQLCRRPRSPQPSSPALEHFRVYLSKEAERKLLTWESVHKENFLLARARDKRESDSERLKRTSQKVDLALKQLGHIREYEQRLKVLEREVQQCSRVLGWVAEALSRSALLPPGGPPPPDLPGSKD
Assay: TRP Family FLIPR Assay, TRPM4
Details: agonist mode; vs EMAX of A23187 3.3 μM; CHO cells; read-out: EC50 hTRMP4
pEC50: −log10 of the molar value.
MEASURE: pEC50

INSERT INTO results (compound, measure, data_value) VALUES
  ('CC(C)(O)c1cnc(N2C[C@@]3(CC[C@@H](F)[C@](C)(Cn4cnc5ccc(C#N)cc54)C3)OC2=O)cn1 (single isomer, unassigned) [Example 5]', 'pEC50', '< 5.00');

----------
Molecular target: TRPM5 channels (Homo sapiens, UniProt Q9NZQ8)
Sequence (Q9NZQ8 whole entry): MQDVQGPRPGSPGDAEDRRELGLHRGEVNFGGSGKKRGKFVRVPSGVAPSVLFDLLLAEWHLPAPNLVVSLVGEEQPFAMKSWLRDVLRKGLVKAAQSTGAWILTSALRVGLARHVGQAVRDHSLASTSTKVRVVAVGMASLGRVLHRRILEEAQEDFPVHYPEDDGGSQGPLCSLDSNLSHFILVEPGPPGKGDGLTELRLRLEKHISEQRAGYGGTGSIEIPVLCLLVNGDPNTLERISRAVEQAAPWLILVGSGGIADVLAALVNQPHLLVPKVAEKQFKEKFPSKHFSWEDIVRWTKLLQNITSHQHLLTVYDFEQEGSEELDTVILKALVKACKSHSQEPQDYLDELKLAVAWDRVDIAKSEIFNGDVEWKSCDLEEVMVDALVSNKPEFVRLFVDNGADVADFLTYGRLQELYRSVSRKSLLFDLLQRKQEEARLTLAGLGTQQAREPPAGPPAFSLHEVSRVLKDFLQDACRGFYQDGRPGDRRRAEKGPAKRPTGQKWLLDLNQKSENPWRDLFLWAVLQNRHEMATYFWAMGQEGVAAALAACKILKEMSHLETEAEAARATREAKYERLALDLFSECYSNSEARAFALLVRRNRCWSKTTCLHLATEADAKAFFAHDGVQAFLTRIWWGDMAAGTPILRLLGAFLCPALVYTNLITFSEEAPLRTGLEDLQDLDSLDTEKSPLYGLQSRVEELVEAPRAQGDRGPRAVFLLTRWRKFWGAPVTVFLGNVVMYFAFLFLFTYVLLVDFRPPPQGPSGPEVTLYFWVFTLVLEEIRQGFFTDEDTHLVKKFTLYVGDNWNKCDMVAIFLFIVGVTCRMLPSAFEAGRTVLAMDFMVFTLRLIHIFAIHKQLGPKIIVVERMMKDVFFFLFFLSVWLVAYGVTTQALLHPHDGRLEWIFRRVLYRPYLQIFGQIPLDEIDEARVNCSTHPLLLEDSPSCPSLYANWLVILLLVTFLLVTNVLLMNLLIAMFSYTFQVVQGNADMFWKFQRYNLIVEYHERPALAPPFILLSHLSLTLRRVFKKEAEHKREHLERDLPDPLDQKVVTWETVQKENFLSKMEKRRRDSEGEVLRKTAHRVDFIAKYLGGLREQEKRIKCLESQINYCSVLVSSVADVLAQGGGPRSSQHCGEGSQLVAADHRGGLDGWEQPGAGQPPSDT
Assay: TRP Family FLIPR Assay, TRPM5
Conditions: agonist mode; vs EMAX of Mg-ATP 33.3 μM; CHO cells; read-out: EC50 hTRPM5
pEC50: −log10 of the molar value.
MEASURE: pEC50

INSERT INTO results (compound, data_value) VALUES
  ('CC(C)(O)c1cnc(N2C[C@@]3(CC[C@@H](F)[C@](C)(Cn4cnc5ccc(C#N)cc54)C3)OC2=O)cn1 (single isomer, unassigned)', '< 5.00');

----------
Biological target: TRPM3 channels (Homo sapiens)
Sequence (Q9HCF6 whole entry): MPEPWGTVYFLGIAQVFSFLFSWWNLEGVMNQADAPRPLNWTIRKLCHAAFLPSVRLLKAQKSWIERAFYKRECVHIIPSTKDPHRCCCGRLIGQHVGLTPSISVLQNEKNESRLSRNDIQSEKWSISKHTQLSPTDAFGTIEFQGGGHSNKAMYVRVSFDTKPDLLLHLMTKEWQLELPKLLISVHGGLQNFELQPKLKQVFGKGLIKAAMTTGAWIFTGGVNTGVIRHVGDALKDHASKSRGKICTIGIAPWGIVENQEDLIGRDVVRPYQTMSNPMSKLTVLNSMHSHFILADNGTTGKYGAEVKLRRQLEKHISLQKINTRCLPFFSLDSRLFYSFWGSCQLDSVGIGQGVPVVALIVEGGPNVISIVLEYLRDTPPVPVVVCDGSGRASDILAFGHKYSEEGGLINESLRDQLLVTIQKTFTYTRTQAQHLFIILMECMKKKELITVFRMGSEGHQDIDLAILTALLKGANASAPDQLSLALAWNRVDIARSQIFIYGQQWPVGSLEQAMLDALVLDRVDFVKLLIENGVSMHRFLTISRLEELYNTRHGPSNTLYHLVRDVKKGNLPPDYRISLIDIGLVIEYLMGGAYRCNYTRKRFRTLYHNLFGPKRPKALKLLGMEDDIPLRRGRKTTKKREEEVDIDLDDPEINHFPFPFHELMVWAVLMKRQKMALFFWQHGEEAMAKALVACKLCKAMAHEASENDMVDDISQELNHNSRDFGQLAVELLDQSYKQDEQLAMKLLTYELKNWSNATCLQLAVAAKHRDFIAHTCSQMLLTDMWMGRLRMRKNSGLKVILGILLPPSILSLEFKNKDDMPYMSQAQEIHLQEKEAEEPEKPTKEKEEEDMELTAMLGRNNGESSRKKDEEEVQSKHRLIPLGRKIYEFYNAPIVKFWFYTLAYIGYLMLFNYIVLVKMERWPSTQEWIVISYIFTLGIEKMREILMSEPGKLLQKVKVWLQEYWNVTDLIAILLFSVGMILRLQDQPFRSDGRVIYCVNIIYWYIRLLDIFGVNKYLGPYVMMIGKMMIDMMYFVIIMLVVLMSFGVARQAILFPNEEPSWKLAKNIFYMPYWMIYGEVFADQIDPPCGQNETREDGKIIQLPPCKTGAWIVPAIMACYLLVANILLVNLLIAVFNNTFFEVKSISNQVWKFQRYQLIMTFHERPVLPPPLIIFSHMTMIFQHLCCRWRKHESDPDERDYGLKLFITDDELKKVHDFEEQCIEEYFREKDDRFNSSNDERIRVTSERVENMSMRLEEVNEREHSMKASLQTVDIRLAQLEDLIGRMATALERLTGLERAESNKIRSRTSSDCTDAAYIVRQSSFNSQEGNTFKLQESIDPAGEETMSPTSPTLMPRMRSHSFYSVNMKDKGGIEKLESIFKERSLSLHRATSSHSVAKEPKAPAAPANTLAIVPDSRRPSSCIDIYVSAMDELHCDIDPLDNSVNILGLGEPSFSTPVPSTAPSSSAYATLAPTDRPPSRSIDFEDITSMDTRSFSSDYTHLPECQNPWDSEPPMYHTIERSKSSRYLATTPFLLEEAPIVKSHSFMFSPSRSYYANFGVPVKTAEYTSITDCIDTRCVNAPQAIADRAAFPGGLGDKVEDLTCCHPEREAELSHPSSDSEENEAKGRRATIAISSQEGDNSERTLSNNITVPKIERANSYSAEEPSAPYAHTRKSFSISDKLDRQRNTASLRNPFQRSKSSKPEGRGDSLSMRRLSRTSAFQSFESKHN
Assay: TRP Family FLIPR Assay, TRPM3
Settings: agonist mode; vs EMAX of pregnenolone 100 μM; HEK293 cells (transient); read-out: EC50 hTRPM3
MEASURE: EC50

INSERT INTO measurements (molecule, measure, data_value) VALUES
  ('CC(C)(O)c1cnc(N2C[C@@]3(CC[C@@H](F)[C@](C)(Cn4cnc5ccc(C#N)cc54)C3)OC2=O)cn1 (single isomer, unassigned) [Example 5]', 'EC50', '> 10 µM');

----------
Target: Human TRPV4 (Homo sapiens, UniProt Q9HBA0)
Sequence (Q9HBA0 whole entry): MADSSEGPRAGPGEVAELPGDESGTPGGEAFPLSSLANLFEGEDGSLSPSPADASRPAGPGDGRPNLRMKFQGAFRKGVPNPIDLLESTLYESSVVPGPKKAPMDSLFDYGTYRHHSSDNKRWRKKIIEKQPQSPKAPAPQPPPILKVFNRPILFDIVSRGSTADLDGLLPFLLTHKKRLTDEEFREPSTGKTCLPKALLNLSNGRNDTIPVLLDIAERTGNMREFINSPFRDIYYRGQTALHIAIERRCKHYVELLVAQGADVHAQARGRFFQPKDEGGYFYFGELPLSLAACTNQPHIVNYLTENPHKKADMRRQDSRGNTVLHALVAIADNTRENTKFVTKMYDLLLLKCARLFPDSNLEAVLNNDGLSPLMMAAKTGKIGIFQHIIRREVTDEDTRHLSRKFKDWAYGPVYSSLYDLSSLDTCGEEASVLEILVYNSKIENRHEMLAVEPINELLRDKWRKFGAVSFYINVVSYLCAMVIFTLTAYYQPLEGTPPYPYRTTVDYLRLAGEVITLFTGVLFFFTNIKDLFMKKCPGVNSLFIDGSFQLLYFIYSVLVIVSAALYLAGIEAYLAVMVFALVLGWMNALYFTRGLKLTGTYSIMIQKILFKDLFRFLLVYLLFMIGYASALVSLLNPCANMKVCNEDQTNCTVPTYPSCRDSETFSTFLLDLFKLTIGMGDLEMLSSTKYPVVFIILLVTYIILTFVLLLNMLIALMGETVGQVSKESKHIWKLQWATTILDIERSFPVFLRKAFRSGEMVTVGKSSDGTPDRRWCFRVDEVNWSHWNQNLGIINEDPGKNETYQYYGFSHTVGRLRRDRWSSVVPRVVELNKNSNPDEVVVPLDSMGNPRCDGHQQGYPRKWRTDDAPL
Experiment: TRPV4 calcium flux assay (FLIPR, antagonist mode)
Type: cell-based
Design: HiBiT (inferred from the expression read-out); host or cells: HEK293T
Details: HEK293T cells transfected with hTRPV4; antagonist mode vs EC80 of TRPV4 agonist; average of at least 3 separate experiments; read-out: Human TRPV4 Ca2+ Assay IC50
pIC50: −log10 of the molar value.
MEASURE: pIC50

INSERT INTO assay_data (compound, data_value) VALUES
  ('CC(C)(O)c1cnc(N2C[C@@]3(CCC(C)(C)[C@H](Cn4cnc5ccc(C#N)cc54)C3)OC2=O)cn1 (single isomer, unassigned) [Example 1]', 6.22),
  ('CC(C)(O)c1cnc(N2C[C@@]3(CC[C@@H](F)[C@](C)(Cn4cnc5ccc(C#N)cc54)C3)OC2=O)cn1 (single isomer, unassigned) [Example 5]', 7.89),
  ('CC(C)(O)c1cnc(N2C[C@@]3(CCC(F)(F)[C@](C)(Cn4cnc5ccc(C#N)cc54)C3)OC2=O)cn1 [Example 15]', 8.10),
  ('CC(C)(O)c1cnc(N2C[C@@]3(CCC[C@](CF)(Cn4cnc5ccc(C#N)cc54)C3)OC2=O)cn1 (single isomer, unassigned) [Example 7]', 7.96),
  ('CC(C)(O)c1cnc(N2C[C@@]3(CC[C@@H](F)[C@](C)(Cn4cnc5c(Cl)cc(C#N)cc54)C3)OC2=O)cn1 (single isomer, unassigned) [Example 19]', 8.05),
  ('CC(C)(O)c1cnc(N2C[C@@]3(CCC[C@](C)(Cn4cnc5ccc(C#N)cc54)C3)OC2=O)cn1 [GSK2798745, reference compound]', 8.00);

----------
Property: Hepatocytes predicted clearance in dog; scope: individual compounds
System: Hepatocytes
Experiment: Hepatocytes predicted clearance, dog
MEASURE: Hepatocytes predicted clearance in dog

INSERT INTO measurements (compound, measure, data_value) VALUES
  ('CC(C)(O)c1cnc(N2C[C@@]3(CC[C@@H](F)[C@](C)(Cn4cnc5ccc(C#N)cc54)C3)OC2=O)cn1 (single isomer, unassigned) [Example 5]', 'Hepatocytes predicted clearance in dog', '11 mL/min/kg'),
  ('CC(C)(O)c1cnc(N2C[C@@]3(CCC[C@](CF)(Cn4cnc5ccc(C#N)cc54)C3)OC2=O)cn1 (single isomer, unassigned) [Example 7]', 'Hepatocytes predicted clearance in dog', '< 0.17 mL/min/kg'),
  ('CC(C)(O)c1cnc(N2C[C@@]3(CCC(F)(F)[C@](C)(Cn4cnc5ccc(C#N)cc54)C3)OC2=O)cn1 [Example 15]', 'Hepatocytes predicted clearance in dog', '4.33 mL/min/kg'),
  ('N#Cc1ccc2ncn(C[C@@H]3C[C@@]4(CCC3(F)F)CN(c3ccccc3Cl)C(=O)O4)c2c1 (single isomer, unassigned) [Example 12]', 'Hepatocytes predicted clearance in dog', '284.5 mL/min/kg');

----------
Molecular target: TRPC6 channels (Homo sapiens)
Experiment: TRP Family FLIPR Assay, TRPC6
Conditions: antagonist mode; activated with 10 μM Na-ATP; HEK293 cells; 0.003-10 μM; read-out: IC50 hTRPC6
pIC50: −log10 of the molar value.
MEASURE: pIC50

INSERT INTO results (molecule, data_value) VALUES
  ('CC(C)(O)c1cnc(N2C[C@@]3(CC[C@@H](F)[C@](C)(Cn4cnc5ccc(C#N)cc54)C3)OC2=O)cn1 (single isomer, unassigned)', '< 5.00');
